# target-or-system: FLT-4 (h) (VEGFR3) (Homo sapiens)
# Sequence (P35916 25-1363): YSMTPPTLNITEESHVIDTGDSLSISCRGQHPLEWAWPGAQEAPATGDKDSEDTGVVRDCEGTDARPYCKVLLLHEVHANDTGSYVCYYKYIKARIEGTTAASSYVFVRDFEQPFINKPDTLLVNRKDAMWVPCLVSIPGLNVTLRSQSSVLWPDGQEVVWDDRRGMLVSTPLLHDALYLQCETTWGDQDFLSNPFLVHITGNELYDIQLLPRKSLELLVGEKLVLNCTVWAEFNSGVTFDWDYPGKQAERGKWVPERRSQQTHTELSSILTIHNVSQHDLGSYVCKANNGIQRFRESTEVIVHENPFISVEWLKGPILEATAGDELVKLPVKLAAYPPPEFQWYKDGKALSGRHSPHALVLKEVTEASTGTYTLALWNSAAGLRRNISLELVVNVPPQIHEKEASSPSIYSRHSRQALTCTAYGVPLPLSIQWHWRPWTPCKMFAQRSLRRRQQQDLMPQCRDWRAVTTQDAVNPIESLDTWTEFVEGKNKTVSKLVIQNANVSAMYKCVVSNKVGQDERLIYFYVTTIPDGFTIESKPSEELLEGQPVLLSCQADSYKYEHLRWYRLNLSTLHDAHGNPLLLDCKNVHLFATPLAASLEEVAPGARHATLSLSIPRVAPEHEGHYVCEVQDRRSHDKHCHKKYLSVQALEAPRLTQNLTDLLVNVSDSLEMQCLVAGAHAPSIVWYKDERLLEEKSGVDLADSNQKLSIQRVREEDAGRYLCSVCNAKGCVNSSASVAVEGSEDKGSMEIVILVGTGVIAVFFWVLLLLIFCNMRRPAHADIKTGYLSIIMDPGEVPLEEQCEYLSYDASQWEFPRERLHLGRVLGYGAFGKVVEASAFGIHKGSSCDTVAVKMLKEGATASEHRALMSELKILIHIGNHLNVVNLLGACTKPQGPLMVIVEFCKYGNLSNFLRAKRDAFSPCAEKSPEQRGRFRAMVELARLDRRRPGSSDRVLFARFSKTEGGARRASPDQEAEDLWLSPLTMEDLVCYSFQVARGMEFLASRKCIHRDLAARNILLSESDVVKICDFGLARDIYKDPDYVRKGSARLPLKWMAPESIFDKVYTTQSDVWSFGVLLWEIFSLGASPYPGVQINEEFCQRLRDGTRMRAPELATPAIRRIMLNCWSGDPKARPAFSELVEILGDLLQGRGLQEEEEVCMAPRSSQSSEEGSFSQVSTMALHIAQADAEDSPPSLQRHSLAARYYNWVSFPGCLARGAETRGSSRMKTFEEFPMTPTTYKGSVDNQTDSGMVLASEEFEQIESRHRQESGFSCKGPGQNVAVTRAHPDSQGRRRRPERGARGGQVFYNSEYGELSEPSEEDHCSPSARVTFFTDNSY
# measurement-description: Biochemical kinase assay (CEREP)
# assay-conditions: 10 μM ATP; performed by CEREP
Reported IC50 values are given for each entry in this list.
measured-endpoint: IC50 (nM)

[[record]]
structure = "O=C1Nc2ccc(S(F)(F)(F)(F)F)cc2/C1=C/c1ccc[nH]1"
target_or_system = "FLT-4 (h) (VEGFR3) (Homo sapiens)"
comparison_operator = ">"
assay_result = 1000

[[record]]
structure = "O=C1Nc2cc(S(F)(F)(F)(F)F)ccc2/C1=C/c1ccc[nH]1"
target_or_system = "FLT-4 (h) (VEGFR3) (Homo sapiens)"
comparison_operator = "="
assay_result = 230

[[record]]
structure = "Cc1[nH]c(/C=C2\\C(=O)Nc3ccc(S(F)(F)(F)(F)F)cc32)c(C)c1CCC(=O)O"
target_or_system = "FLT-4 (h) (VEGFR3) (Homo sapiens)"
comparison_operator = "="
assay_result = 530

[[record]]
structure = "Cc1[nH]c(/C=C2\\C(=O)Nc3cc(S(F)(F)(F)(F)F)ccc32)c(C)c1CCC(=O)O"
target_or_system = "FLT-4 (h) (VEGFR3) (Homo sapiens)"
comparison_operator = "="
assay_result = 18


----------
# target-or-system: STK16 (Serine/threonine-protein kinase 16) (Homo sapiens)
# Sequence (O75716 whole entry, species assumed): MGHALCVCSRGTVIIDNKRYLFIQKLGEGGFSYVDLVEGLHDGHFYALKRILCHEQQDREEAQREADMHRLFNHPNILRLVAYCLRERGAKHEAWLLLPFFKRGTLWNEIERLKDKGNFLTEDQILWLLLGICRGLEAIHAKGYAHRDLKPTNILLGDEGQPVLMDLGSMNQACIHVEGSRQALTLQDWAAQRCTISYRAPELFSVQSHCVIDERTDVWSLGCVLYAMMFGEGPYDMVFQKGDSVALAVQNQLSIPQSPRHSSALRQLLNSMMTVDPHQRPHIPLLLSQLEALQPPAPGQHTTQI
# measurement-description: Kinase binding displacement assay
# assay-conditions: no ATP present
Reported IC50 values are given for each entry in this list.
measured-endpoint: IC50

[[record]]
structure = "Cc1[nH]c(/C=C2\\C(=O)Nc3ccc(S(F)(F)(F)(F)F)cc32)c(C)c1CCC(=O)O"
assay_result = "> 1 µM"

[[record]]
structure = "Cc1[nH]c(/C=C2\\C(=O)Nc3cc(S(F)(F)(F)(F)F)ccc32)c(C)c1CCC(=O)O"
assay_result = "> 1 µM"

[[record]]
structure = "O=C1Nc2cc(S(F)(F)(F)(F)F)ccc2/C1=C/c1ccc[nH]1"
assay_result = "135 µM"

[[record]]
structure = "O=C1Nc2ccc(S(F)(F)(F)(F)F)cc2/C1=C/c1ccc[nH]1"
assay_result = "17.6 µM"


----------
Reported IC50 values are given for each entry in this list.
# target-or-system: AAK1 (Adaptor-associated protein kinase 1) (Homo sapiens)
# Sequence (Q2M2I8 whole entry, species assumed): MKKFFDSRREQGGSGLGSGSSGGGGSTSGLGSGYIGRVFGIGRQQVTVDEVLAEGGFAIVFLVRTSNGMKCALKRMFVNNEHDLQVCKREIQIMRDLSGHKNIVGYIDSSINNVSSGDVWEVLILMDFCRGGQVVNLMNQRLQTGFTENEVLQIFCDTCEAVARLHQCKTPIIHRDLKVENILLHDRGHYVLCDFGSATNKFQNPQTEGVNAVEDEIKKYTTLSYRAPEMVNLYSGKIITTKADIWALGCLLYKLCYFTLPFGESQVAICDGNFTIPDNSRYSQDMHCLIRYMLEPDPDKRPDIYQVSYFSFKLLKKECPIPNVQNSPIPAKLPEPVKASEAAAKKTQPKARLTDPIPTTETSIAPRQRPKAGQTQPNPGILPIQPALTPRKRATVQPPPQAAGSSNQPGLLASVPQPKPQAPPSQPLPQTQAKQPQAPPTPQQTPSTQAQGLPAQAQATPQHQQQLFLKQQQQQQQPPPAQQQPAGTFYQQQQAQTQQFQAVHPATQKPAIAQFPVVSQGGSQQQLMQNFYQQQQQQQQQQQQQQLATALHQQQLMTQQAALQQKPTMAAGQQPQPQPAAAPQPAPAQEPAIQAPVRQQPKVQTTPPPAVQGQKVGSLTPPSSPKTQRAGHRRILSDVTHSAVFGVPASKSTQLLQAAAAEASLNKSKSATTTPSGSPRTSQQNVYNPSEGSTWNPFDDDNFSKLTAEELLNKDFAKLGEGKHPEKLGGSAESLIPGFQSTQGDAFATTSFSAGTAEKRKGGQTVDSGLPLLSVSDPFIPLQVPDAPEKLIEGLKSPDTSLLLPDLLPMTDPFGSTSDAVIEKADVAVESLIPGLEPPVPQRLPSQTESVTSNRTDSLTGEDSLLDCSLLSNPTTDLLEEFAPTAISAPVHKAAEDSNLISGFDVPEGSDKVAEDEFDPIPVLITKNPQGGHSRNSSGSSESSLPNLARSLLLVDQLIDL
# measurement-description: Kinase binding displacement assay
# assay-conditions: no ATP present
measured-endpoint: IC50 (µM)

[[record]]
structure = "Cc1[nH]c(/C=C2\\C(=O)Nc3ccc(S(F)(F)(F)(F)F)cc32)c(C)c1CCC(=O)O"
comparison_operator = ">"
assay_result = 1

[[record]]
structure = "Cc1[nH]c(/C=C2\\C(=O)Nc3cc(S(F)(F)(F)(F)F)ccc32)c(C)c1CCC(=O)O"
comparison_operator = ">"
assay_result = 1

[[record]]
structure = "O=C1Nc2cc(S(F)(F)(F)(F)F)ccc2/C1=C/c1ccc[nH]1"
comparison_operator = "="
assay_result = 1000

[[record]]
structure = "O=C1Nc2ccc(S(F)(F)(F)(F)F)cc2/C1=C/c1ccc[nH]1"
comparison_operator = "="
assay_result = 1


----------
# target-or-system: UniProt:P16234
# Sequence (P16234 24-1089): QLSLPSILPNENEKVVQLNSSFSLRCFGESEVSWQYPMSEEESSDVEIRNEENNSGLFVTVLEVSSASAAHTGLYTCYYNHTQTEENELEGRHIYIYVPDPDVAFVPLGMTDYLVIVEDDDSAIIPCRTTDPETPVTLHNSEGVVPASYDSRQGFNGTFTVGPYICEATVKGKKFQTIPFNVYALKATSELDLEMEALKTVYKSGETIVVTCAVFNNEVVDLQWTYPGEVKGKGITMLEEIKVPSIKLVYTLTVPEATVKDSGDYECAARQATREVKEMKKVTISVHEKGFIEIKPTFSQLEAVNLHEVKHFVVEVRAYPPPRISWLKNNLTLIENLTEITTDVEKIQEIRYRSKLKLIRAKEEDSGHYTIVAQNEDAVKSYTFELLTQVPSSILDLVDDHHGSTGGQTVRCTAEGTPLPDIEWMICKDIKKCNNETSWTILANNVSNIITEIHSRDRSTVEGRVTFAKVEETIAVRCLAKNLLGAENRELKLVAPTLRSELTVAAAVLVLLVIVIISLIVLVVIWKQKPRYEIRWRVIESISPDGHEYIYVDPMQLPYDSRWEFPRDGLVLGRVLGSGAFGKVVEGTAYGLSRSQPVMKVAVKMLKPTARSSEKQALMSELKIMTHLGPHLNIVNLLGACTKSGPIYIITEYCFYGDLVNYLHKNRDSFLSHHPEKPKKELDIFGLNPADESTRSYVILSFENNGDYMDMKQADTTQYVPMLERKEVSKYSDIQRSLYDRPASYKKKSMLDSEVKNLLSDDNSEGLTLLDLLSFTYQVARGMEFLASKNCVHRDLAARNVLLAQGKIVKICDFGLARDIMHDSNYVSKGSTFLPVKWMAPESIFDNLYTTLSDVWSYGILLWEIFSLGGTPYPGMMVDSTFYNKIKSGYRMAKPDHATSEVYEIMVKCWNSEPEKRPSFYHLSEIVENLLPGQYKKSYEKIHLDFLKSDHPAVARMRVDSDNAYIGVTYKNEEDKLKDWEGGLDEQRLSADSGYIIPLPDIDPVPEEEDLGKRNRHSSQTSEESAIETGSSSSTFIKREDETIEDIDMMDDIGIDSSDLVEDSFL
# measurement-description: Biochemical kinase assay (CEREP)
# assay-conditions: 10 μM ATP; performed by CEREP
measured-endpoint: IC50 (nM)

[[record]]
structure = "Cc1[nH]c(/C=C2\\C(=O)Nc3ccc(S(F)(F)(F)(F)F)cc32)c(C)c1CCC(=O)O"
measured_endpoint = "IC50"
comparison_operator = ">"
assay_result = 1000

[[record]]
structure = "Cc1[nH]c(/C=C2\\C(=O)Nc3cc(S(F)(F)(F)(F)F)ccc32)c(C)c1CCC(=O)O"
measured_endpoint = "IC50"
comparison_operator = "="
assay_result = 3.1

[[record]]
structure = "O=C1Nc2ccc(S(F)(F)(F)(F)F)cc2/C1=C/c1ccc[nH]1"
measured_endpoint = "IC50"
comparison_operator = ">"
assay_result = 1000

[[record]]
structure = "O=C1Nc2cc(S(F)(F)(F)(F)F)ccc2/C1=C/c1ccc[nH]1"
measured_endpoint = "IC50"
comparison_operator = "="
assay_result = 98

